Reference source: the Immune Epitope Database (IEDB)

Target: HLA-A*01:01
Test: IEDB peptide-MHC binding, purified MHC/direct/fluorescence; filed as Kd, often an IC50 or EC50 that approximates it; bounds were set here for any values at or beyond the usual limits of such assays
Settings: source organism: Vibrio parahaemolyticus
Quantity Name: pKd
// pKd is dimensionless: -log10 of concentration (M)

Summary for this sequence, ILRPLGIEY : pKd is 5.69

----------
Target: HLA-A*02:01
Experiment: IEDB peptide-MHC binding, purified MHC/competitive/radioactivity; bounds were set here for any values at or beyond the usual limits of such assays
Conditions: source organism: Homo sapiens
Quantity Name: pIC50
// pIC50 is dimensionless: -log10 of concentration (M)

Summary for this sequence, RVASPTSGV : pIC50 is 6.14

----------
Target: HLA-B*51:01
Test: IEDB peptide-MHC binding, purified MHC/competitive/radioactivity; filed as Kd, often an IC50 or EC50 that approximates it; bounds were set here for any values at or beyond the usual limits of such assays
Details: source organism: Mammarenavirus lassaense
Quantity Name: pKd
// pKd is dimensionless: -log10 of concentration (M)

Measured pKd (HLA-B*51:01), entry FPYIMGSVEL : 6.43

----------
Target: HLA-A*03:01
Test: IEDB peptide-MHC binding, purified MHC/direct/fluorescence; filed as Kd, often an IC50 or EC50 that approximates it; bounds were set here for any values at or beyond the usual limits of such assays
Conditions: source organism: Reston ebolavirus - Reston
Quantity Name: Kd (nM)
Give the quantity in nM, number only.

Summary for this sequence, RTYSLLNRK : Kd is 144

----------
As shown below, each of these sequences has a reported Kd value.
Target: HLA-B*53:01
Test: IEDB peptide-MHC binding, purified MHC/competitive/radioactivity; filed as Kd, often an IC50 or EC50 that approximates it; bounds were set here for any values at or beyond the usual limits of such assays
Conditions: source organism: Triticum aestivum
Give the quantity in µM, number only.

Summary for this sequence, QPFPQPQLPY : Kd is 0.256

***
Summary for this sequence, IPEQSQCQAI : Kd is 3.89

----------
Molecular target: HLA-B*51:01
Experiment: IEDB peptide-MHC binding, purified MHC/competitive/fluorescence; filed as Kd, often an IC50 or EC50 that approximates it; bounds were set here for any values at or beyond the usual limits of such assays
Conditions: source organism: Vibrio vulnificus YJ016
Quantity Name: Kd

Measured Kd (HLA-B*51:01), entry TSCAPMMQK : ≥ 20 µM

----------
Molecular target: HLA-A*02:02
Assay: IEDB peptide-MHC binding, purified MHC/competitive/radioactivity; filed as Kd, often an IC50 or EC50 that approximates it; bounds were set here for any values at or beyond the usual limits of such assays
Conditions: source organism: Vaccinia virus WR
Under this convention, t denotes Kd strictly below 0.07 µM and f denotes Kd at or above 0.07 µM.

Known results for sequences:
Query: Record DTDIVNNFI : is its Kd strictly below 0.07 µM?
Response: f

Query: Record NTIAVITETI : is its Kd strictly below 0.07 µM?
Response: t

Query: Record LITLILSNKL : is its Kd strictly below 0.07 µM?
Response: f

Query: Record VIVENDNVI : is its Kd strictly below 0.07 µM?
Response: f

***
Query: Record YISRDELWA : is its Kd strictly below 0.07 µM?
Response: f

Query: Record STAEQLSKYV : is its Kd strictly below 0.07 µM?
Response: f

Query: Record FTILEYLYI : is its Kd strictly below 0.07 µM?
Response: f

Query: Record FVTDYVHEGV : is its Kd strictly below 0.07 µM?
Response: t

Query: Record IVPDADPPI : is its Kd strictly below 0.07 µM?
Response: f

Query: Record ETKRNIARHL : is its Kd strictly below 0.07 µM?
Response: f

Query: Record GMQFDKVYL : is its Kd strictly below 0.07 µM?
Response: t

Query: Record ILPDKIDGL : is its Kd strictly below 0.07 µM?
Response: t

Query: Record AIRAGYSIV : is its Kd strictly below 0.07 µM?
Response: f

Query: Record STDQDTMLFA : is its Kd strictly below 0.07 µM?
Response: f

Query: Record DTCGASINIT : is its Kd strictly below 0.07 µM?
Response: f

Query: Record LTSVDIETAI : is its Kd strictly below 0.07 µM?
Response: f
